experiment_notes: Oxidation of boronic acids by hydrogen peroxide, continuous UV-absorbance assay
Assay type: physicochemical
details: second-order rate constant of oxidation by hydrogen peroxide, physiological pH

compound | kobs, M⁻¹ s⁻¹
O=C(O)Cc1ccccc1B(O)O | 0.041
O=C(O)c1ccccc1B(O)O | 0.00015
OCc1ccccc1B(O)O [Compound 2-HMPBA, (2-hydroxymethyl)phenylboronic acid] | 2.4
OB(O)c1ccccc1 | 2.4

====

experiment_notes: Oxidation of boronic acids by hydrogen peroxide, continuous UV-absorbance assay
Format: physicochemical
details: experimental; relative to PBA
# kmonoanion (rel) annotations

compound | kmonoanion (rel)
OCc1ccccc1B(O)O [Compound 2-HMPBA, (2-hydroxymethyl)phenylboronic acid] | 0.10
O=C(O)Cc1ccccc1B(O)O | 0.00088
O=C(O)c1ccccc1B(O)O | 0.0000035
OB(O)c1ccccc1 | 1
